# subject-of-test: YES1 kinase (Homo sapiens, UniProt P07947)
# Sequence (P07947 whole entry): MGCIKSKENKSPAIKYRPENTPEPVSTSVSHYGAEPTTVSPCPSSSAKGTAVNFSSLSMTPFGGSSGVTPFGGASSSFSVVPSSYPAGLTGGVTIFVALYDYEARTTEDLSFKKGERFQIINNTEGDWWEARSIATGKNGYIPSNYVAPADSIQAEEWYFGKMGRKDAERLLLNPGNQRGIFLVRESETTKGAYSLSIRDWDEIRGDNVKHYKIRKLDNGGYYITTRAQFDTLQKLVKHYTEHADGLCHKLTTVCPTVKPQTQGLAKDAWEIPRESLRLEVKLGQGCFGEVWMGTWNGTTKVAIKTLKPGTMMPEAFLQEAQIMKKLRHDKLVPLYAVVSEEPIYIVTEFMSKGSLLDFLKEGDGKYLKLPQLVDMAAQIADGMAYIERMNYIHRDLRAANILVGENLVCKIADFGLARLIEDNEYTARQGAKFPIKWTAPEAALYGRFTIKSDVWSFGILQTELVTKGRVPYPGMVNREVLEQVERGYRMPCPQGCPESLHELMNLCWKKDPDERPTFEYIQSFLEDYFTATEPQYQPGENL
# assay-comment: YES1 kinase inhibition, ADP Glo assay (Promega)
# Format: biochemical
# condition-context: compound 10 nM; read-out: YES1 enzyme, % inhibition, 10 nM
metric-name: inhibition at 0.01 µM

Worked set:
COc1cc(-c2cc(N3CC[C@@H](N(C)C)C3)n3ncnc(N)c23)ccc1NC(=O)OC(C)(C)C :: 8%
COc1cc(-c2cc(-c3ccc4c(c3)OCC(=O)N4C)n3ncnc(N)c23)ccc1NC(=O)OC(C)(C)C :: 33%
COc1cc(-c2cc(N3CCC4(CCN(C)CC4)C3)n3ncnc(N)c23)ccc1NC(=O)OC(C)(C)C :: 36%

Inquiry: Returns the measured inhibition at 0.01 µM for the input compound. Input: COc1cc(-c2cc(N3CCC(N)C(C)(C)C3)n3ncnc(N)c23)ccc1NC(=O)OC(C)(C)C (stereo not shown)
Reply text: 41%
